target: RORγ (Homo sapiens, UniProt P51449); test: RORγ Gal4 Reporter Gene Assay; type: cell-based
Sequence (P51449 whole entry, looked up, the tested form may be a part): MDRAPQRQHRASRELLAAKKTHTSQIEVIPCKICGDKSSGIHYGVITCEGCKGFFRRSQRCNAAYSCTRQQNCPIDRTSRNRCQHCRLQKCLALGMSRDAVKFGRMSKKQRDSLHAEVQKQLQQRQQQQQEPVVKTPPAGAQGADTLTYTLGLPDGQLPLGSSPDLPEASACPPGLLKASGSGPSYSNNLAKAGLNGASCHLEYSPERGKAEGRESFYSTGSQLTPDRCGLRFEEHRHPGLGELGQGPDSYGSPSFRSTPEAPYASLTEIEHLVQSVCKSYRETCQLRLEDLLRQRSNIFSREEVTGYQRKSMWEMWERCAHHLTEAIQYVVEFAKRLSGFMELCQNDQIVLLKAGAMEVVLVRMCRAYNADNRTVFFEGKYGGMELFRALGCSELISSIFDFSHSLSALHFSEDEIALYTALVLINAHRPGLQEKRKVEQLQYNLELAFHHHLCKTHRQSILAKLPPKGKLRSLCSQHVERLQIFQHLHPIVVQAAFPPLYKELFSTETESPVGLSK
measurement_type: pIC50 (REN)

molecule: CC(C)(C)NS(=O)(=O)c1ccc(-c2sc(NS(C)(=O)=O)nc2CC2CCCCC2)cc1C(F)(F)F [Example 201]
result: 6.0/6.5/6.6
--
molecule: CSc1cnc(CNC(=O)c2nc(CC3CCCCC3)c(-c3ccc(S(=O)(=O)NC(C)(C)C)c(Cl)c3Cl)s2)s1 [6/40]
result: 7.0/8.2/8.3

====

molecular target: RORγ (Homo sapiens, UniProt P51449); assay: RORγ Gal4 Reporter Gene Assay; format: cell-based
List of pIC50 (REN) values.

smiles_code: C[C@H](NC(=O)c1cc(-c2sc(C(=O)NCC(C)(C)O)nc2CC2CCCCC2)cc(C2(C)CC2)c1)C(F)(F)F
pIC50 (REN): 7.0/8.2/8.3

smiles_code: CC(C)(O)c1ccc(-c2sc(C(=O)NC3CCS(=O)(=O)CC3)nc2CC2CCCCC2)c2ccccc12
pIC50 (REN): <4.7/6.8/6.7

smiles_code: CC(C)(C)NS(=O)(=O)c1ccc(-c2sc(C(=O)NCCC(C)(C)C(=O)O)nc2CC2CCCCC2)cc1C(F)(F)F
pIC50 (REN): 6.5/7.4/7.4

smiles_code: CC(C)(C)NS(=O)(=O)c1ccc(-c2sc(C(=O)NC3CSC3)nc2CC2CCCCC2)c(Cl)c1Cl
pIC50 (REN): 7.2/8.7/8.7
